# systemTested: Mucolipin-1 (Homo sapiens) (UniProt Q9GZU1)
# Sequence (Q9GZU1 whole entry, looked up): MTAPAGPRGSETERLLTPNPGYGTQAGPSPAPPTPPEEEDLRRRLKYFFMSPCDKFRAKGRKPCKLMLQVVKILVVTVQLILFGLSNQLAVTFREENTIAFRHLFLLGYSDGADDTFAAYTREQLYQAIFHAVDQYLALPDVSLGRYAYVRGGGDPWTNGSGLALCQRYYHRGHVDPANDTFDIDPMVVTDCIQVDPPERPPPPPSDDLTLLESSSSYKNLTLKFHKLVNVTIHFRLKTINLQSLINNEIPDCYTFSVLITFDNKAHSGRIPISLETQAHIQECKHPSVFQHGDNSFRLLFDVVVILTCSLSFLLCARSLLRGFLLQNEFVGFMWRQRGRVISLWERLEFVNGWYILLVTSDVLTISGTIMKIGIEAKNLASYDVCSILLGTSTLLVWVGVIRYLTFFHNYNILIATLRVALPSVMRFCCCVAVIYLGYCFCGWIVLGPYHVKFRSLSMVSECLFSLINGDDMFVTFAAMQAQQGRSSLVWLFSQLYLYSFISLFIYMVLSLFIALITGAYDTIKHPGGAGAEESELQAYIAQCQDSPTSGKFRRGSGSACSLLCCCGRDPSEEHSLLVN
# assayMethodText: qHTS for Agonists of the Human Mucolipin Transient Receptor Potential 1 (TRPML1); also: 0% is about no effect
# conditionSummary: TRPML1-expressing cells, Ca2+ dye fluorescence, FDSS; active compounds read high
Hit rate of the full screen: of about 410,000 compounds, about 480 (0.12%) were called active. The list comes from a sample in which actives are over-represented; it also holds close analogues and randomly drawn compounds.
activation overview

{"molecule": "COc1cc2nc(Cl)nc(NC3CC3)c2cc1OC", "valueUnit": "%", "activation": -0.998}
{"molecule": "Cc1cccc(NC(=O)COC(=O)c2ccccc2OCc2cccc(Br)c2)c1", "valueUnit": "%", "activation": -0.0809}
{"molecule": "Cc1cccc(-n2c(=O)c3c(c4cc(C)ccc4n3C)n(CC(=O)Nc3ccccc3Cl)c2=O)c1", "valueUnit": "%", "activation": 1.58}
